Property Label: melting point

Some compounds with recorded melting point:
CCOc1cc2cc(CO)cc(-c3ccnc(-n4nc(-c5ccccc5)c5ccccc5c4=O)c3)c2cc1OCC
203 to 204 °C
CCOC(=O)C(C)c1ccc(-c2ccc(F)cc2F)c(F)c1 (stereo unspecified)
36 to 38 °C
CC(CC(C)(C)C)CP(=O)(O)Cc1cc(C(C)(C)C)c(O)c(C(C)(C)C)c1 (stereo unspecified)
108 to 110 °C

Looking up CCC(C)c1ccc2c(c1)C1(O)C(=O)c3ccccc3C1(O)O2 (stereo unspecified) , I found its melting point recorded as 134 to 136 °C

Looking up C(#Cc1cccnc1)c1ccccc1 , I found its melting point recorded as 42 to 43 °C

Looking up Cc1nc(-c2ccccc2)nc(-c2cccc([N+](=O)[O-])c2)c1C(C)Br (stereo unspecified) , I found its melting point recorded as 133 to 134 °C

Looking up COc1ccc(-c2nc(C(=O)O)cc(Cl)c2Cl)cc1 , I found its melting point recorded as 164 to 181 °C

Looking up O=C(O)Cn1cccc1Sc1ccccc1 , I found its melting point recorded as 101 to 102 °C

Looking up CCOC(=O)c1cnc2ccc(OC)cc2c1O , I found its melting point recorded as > 260 °C

Looking up CCCCCCCCCC(CCC)CC(C)CC(O)c1cc(O)ccc1O (stereo unspecified) , I found its melting point recorded as 123 °C

----------
Property Label: melting point

Some molecules with recorded melting point:
COC(=O)C=C1CN=C(c2ccccc2)c2cc(Cl)ccc2N1
167 to 170 °C
COc1cccc(Sc2ccnc(Nc3cccc(CCO)c3)n2)c1
122 to 124 °C
CC(=O)Nc1nc(C)c(CCN2CCC(=C(c3ccc(F)cc3)c3ccc(F)cc3)CC2)c(=O)n1C
141 °C
COc1cc(OC)nc(C(C(=O)NS(C)(=O)=O)C(C)C)n1 (stereo not given)
99 to 102 °C
O=C(CCCN1CCN(c2cccc(Cl)c2Cl)CC1)N1CCc2ccccc21
134 to 136 °C
NC(=O)NCc1ccc(CNC(=O)[C@@H](CCCNC(N)=N[N+](=O)[O-])NC(=O)Nc2cccc3ccccc23)cc1
210 °C
OC(CN1CCNC1=S)c1cc(Cl)cc(Cl)c1 (stereo not given)
158 °C
COP(=O)(Cc1nc2ccccc2nc1CP(=O)(OC)OC)OC
115 to 116 °C
N#Cc1ccc(OCc2ccsc2)cc1OC(C(=O)O)c1ccccc1C(F)(F)F (racemic)
38 to 40 °C

Looking up CCOC(=O)C(C#N)=CNc1ncc(C)cc1C , I found its melting point recorded as 156 to 159 °C

----------
# melting point listing for each entry below

Some molecules with recorded melting point:
Cc1c(C(=O)Nc2ccc(N3CCC(N4CCOCC4)CC3)c(C#N)c2)cnn1-c1ccccn1
251 °C
OCC(Br)c1ccccc1 (stereo unspecified)
38 to 39 °C
CO[C@]1(c2cc(F)cc(Sc3ccc(/C(C)=N/O)cc3)c2)CCO[C@@H](C)C1
105 °C
O=C1Nc2ccccc2Sc2c1csc2Cl
287 to 288 °C
COc1ccc(C(=O)Nc2cccc3[nH]ccc23)c(OCC2CO2)c1 (stereo unspecified)
157 °C

Looking up Cc1cc(C)c2c(c1)SCCC2=NO , I found its melting point recorded as 170 to 174 °C

Looking up CCCCn1c(=O)c2c(nc(/C=C/c3cc(OC)c(OC)c(OC)c3)n2C)n(CCCC)c1=O , I found its melting point recorded as 137 °C

Looking up CCCOc1ccccc1-c1ccc(C#N)c(=O)[nH]1 , I found its melting point recorded as 244 to 247 °C

----------
# melting point listing for each entry below

Some molecules with recorded melting point:
Clc1cccc(-c2cc(OCC3CO3)no2)c1 (configuration not stated)
86 to 87 °C
O=C(Nc1ccc2nc(CN3CCCC3)ccc2c1)N1CCC(c2ccccc2)CC1
187 to 189 °C
NS(=O)(=O)c1cccc2nonc12
157 to 159 °C
Cc1nccn1-c1nc(-c2ccc(Cl)cc2)c(CCCC2=NCCO2)o1
88 to 89 °C

Looking up CC1(C)COC(c2ccccc2-c2ccc(CO)cc2)=N1 , I found its melting point recorded as 97 to 100 °C

Looking up COC(=O)c1ccc(NC(=O)c2cc(C(C)C)c(C(C)C)o2)s1 , I found its melting point recorded as 175 to 177 °C

Looking up COc1ccc(Cc2cnc(NCCSCc3nccs3)[nH]c2=O)cn1 , I found its melting point recorded as 95 to 97 °C

Looking up CON1C=C2N=NC3=C(N2C1)N(c1cc(Cl)ccc1Cl)CC(C)=C3 , I found its melting point recorded as 159 to 162 °C

Looking up CCOC(=O)c1ccc(NC(=O)C=C(c2ccccc2)c2ccccc2)cc1 , I found its melting point recorded as 166 to 169 °C

Looking up O=C1NC(=O)C(Cc2ccc(C(=O)CCCc3ccccc3)cc2)S1 (configuration not stated) , I found its melting point recorded as 120 to 122 °C

Looking up COC(=O)CCC(C#N)(CCC(=O)OC)c1ccc(OC)c(OC)c1 , I found its melting point recorded as 72 to 73 °C

Looking up COC(=O)Cn1c(=S)sc2ccccc21 , I found its melting point recorded as 127 to 128 °C

----------
Property Label: melting point

Some compounds with recorded melting point:
CCc1cc(=O)c(C(=O)OC)c(C)[nH]1
176 to 180 °C
CC(=O)C(=O)C(=O)OC(C)(C)C
62 to 66 °C
CC(C)Oc1ccccc1C1(CC(=O)O)C(=O)Nc2ccc(Cl)cc21 (stereo not given)
146 to 148 °C

Looking up CCCCS(=O)(=O)N(C(=O)OC(C)(C)C)c1cc(O)ccc1OCc1ccccc1 , I found its melting point recorded as 131 to 133 °C

Looking up O=C1CCC(N2C(=O)c3cccc(NCc4cccc(Cl)c4)c3C2=O)C(=O)N1 (stereo not given) , I found its melting point recorded as 207 to 209 °C

----------
# melting point listing for each entry below

Some compounds with recorded melting point:
COC(=O)c1cncn1C1c2ccccc2CC1(C)C (single isomer, unassigned; (-))
74 to 76 °C
COP(=O)(CCc1cccc2c1O[C@H]1C[C@@H](O)[C@H](CO)[C@@H]21)OC
106 to 107 °C
CC1(C)Oc2cc(Br)sc2[C@@H](N2CCCCC2=O)[C@@H]1OCc1ccccc1 (relative stereo)
146 to 147 °C
CCOC(=O)c1c(-c2ccccc2)n(C)n(-c2ccc(C#N)cc2)c1=O
218 to 220 °C

--- query ---
Looking up N#CCCc1cccc(-c2nc(=O)c3ccccc3s2)n1 , I found its melting point recorded as 157 °C

----------
# melting point listing for each entry below

O=C(OCC1CC(O)C(n2cc(F)c(=O)[nH]c2=O)O1)c1ccccc1 (stereo not given)
154 to 156 °C
Cn1nc(-c2ccc(F)cc2)c(-c2ccncc2)c1NC(=O)Cc1ccc(O)cc1
127 to 129 °C
Cc1noc(=O)c2ccc(NC(=O)C(=O)CC3(c4cccc(C(F)(F)F)c4)CC3)cc12
136 to 139 °C

Looking up COC(=O)C1CCC2C3CCC4CC(=O)CCC4(C)C3C(NCCC(C)C)CC12C (stereo not given) , I found its melting point recorded as 86 to 89 °C

Looking up CCOC(=O)c1cn(CCO)c2nc(-c3ccncc3)c(F)cc2c1=O , I found its melting point recorded as 223 to 225 °C

----------
# melting point listing for each entry below

Looking up CC(=O)Nc1ccc(S(=O)(=O)NC(C)(C)C)cc1 , I found its melting point recorded as 200 to 201 °C

Looking up CN(C)CC(=O)N1CC(=Cc2ccccc2)C2=NN(C)C(c3ccccc3)C2C1 (stereo unspecified) , I found its melting point recorded as 132 to 134 °C

Looking up O[C@H]1C[C@@H](c2ccccc2)c2ccc(Cl)cc21 , I found its melting point recorded as 109 °C

Looking up NCC1Cc2cc(Cl)cc(-c3ccoc3)c2O1 (stereo unspecified) , I found its melting point recorded as > 250 °C

Looking up CCOC(=O)c1cc(CC)sc1Nc1ccc([N+](=O)[O-])cc1[N+](=O)[O-] , I found its melting point recorded as 146 to 148 °C

Looking up COC(=O)c1ccc2nc(-n3ccnc3)nc(NCCOCCO)c2c1 , I found its melting point recorded as 233 to 235 °C

----------
# melting point listing for each entry below

Some compounds with recorded melting point:
COc1ccc(-c2nn(Cc3ccc(Cl)cc3Cl)c(=O)cc2-c2ccncc2)cc1
151 to 153 °C
CCCC12COC(c3ccc(Cl)cc3)(CC1=O)OC2
96 °C
CC(=O)N1CCC(C(=O)N[C@@H](CC(C)C)C(=O)N[C@@H](C(C)C)[C@@H](O)c2c(-c3ccccc3)c2=O)CC1
120 to 124 °C
Fc1ccc(-n2ccc3cc(-c4cccnc4)ccc32)cc1
108 to 110 °C
CN1C(=O)C2(COc3cc4c(cc32)OCCO4)c2c(C#N)cccc21 (stereo not given)
196 to 197 °C
Cc1noc(NS(=O)(=O)c2ccc(S(=O)(=O)c3ccccc3)s2)c1Br
139 to 142 °C

Looking up COc1ccc(Cc2ncc(CN3CCN(c4ccccc4OC)CC3)c3cc(OC)c(OC)cc23)cc1OC , I found its melting point recorded as 117 to 119 °C

Looking up CCOc1ccc2[nH]c(=O)n(-c3ccccn3)c2c1 , I found its melting point recorded as 205 °C

Looking up O=C(O)Cc1nn(Cc2ccc(Br)cc2F)c(=O)c2c(F)cccc12 , I found its melting point recorded as 173 to 175 °C

Looking up COC(=O)C(Br)c1nsc2ccc(-n3c(=O)cc(C(F)(F)F)n(C)c3=O)cc12 (stereo not given) , I found its melting point recorded as 84 to 87 °C

Looking up CC(C)(C)OC(=O)N[C@@H](Cc1ccccc1)C(=O)CCC(=O)O , I found its melting point recorded as 108 to 110 °C

Looking up O=C(O)C1=Cc2cc(-c3ccc(C(F)(F)F)cc3)ccc2OCC1 , I found its melting point recorded as 273 to 276 °C

Looking up CC(=O)c1ccc(Br)cn1 , I found its melting point recorded as 112 °C

Looking up CCOC(=O)CC1NCCN(CCc2c[nH]c3ccccc23)C1=O (stereo not given) , I found its melting point recorded as 80 °C

Looking up O=C(Cc1ccccc1)N[C@@H]1C(=O)N2C[C@@H](O)CS[C@H]12 , I found its melting point recorded as 166 to 167 °C

Looking up O=C(Nc1ccc2oc(=O)[nH]c2c1)C(=O)N1CCC(Cc2ccccc2)CC1 , I found its melting point recorded as 187 to 190 °C

Looking up Fc1cc(Cl)cc2cc(-c3ccccc3)[nH]c12 , I found its melting point recorded as 153 to 155 °C

Looking up CCCCCCC(C)(C)c1cc(OC)c(C2=C[C@@H]3CC[C@@]2(C(=O)O)C3(C)C)c(OC)c1 , I found its melting point recorded as 101 to 102 °C

Looking up CCOc1ccc(C(=O)N2c3ccccc3C(N3CCCc4ccccc43)CC2C)cc1OCC (stereo not given) , I found its melting point recorded as 157 to 158 °C

Looking up CN(CCCN1CCC(=C2c3ccccc3C=Cc3ccccc32)CC1)c1ncccn1 , I found its melting point recorded as 129 °C
